Origin of measurements: PubChem BioAssay (NCI)

- Tested on: KM12 colon
- Measurement protocol: NCI-60 one-dose screen, 48 h (100 = growth as untreated, 0 = no growth, -100 = all killed)
- Run parameters: 10 µM unless noted
The panel holds about 83,000 compounds, 20% with a hit somewhere; the sample as a whole holds those more often.
I'd appreciate it if you marked entries satisfied when growth is lower than 40% and not satisfied when it is not.

>>> print(df.to_string())
                            compound_smiles    group_label
0       Oc1ccccc1-c1nnc(COc2ccc(Cl)cc2Cl)o1  not satisfied
1  O=C1C(Cl)=C(Nc2cccc3ccccc23)C(=O)c2ccccc21  not satisfied
2                           CC(=O)Cc1ccccn1  not satisfied
3  COc1ccc2[nH]cc(C3(c4c[nH]c5ccc(OC)cc45)C(=O)Nc4ccc(F)cc43)c2c1  not satisfied
4  Cc1ccccc1NC(=O)c1sc2nc3c(cc2c1N)C(=O)CCC3      satisfied

###

- Test system: NCI-H226 lung
- Measurement protocol: NCI-60 one-dose screen, 48 h (100 = growth as untreated, 0 = no growth, -100 = all killed)
- Run parameters: 10 µM unless noted
Compounds without any hit were thinned out: in the full panel of roughly 83,000, 20% have a hit.
Measurement label: growth (%)

>>> df
                                    compound  measurement_label   val
 0         CC(C)(C)c1ccc(OC(=O)Nc2ccccc2)cc1             growth   106
 1         Cc1cc(N)cc(C)c1-c1c(Br)cc(N)cc1Br             growth  69.2
 2        O=C(Nc1ccc(Br)cc1)c1ccc(Cl)c(Cl)c1             growth  61.8
 3  Cc1cccc(/C=N/n2c(-c3ccc(Cl)cc3)nc3c(Br)cc(Br)cc3c2=O)c1             growth  37.9
 4         Cc1[nH]c2ccccc2c1C1=CC(=O)C=CC1=O             growth  94.2
 5  CCN1C(=O)/C(=C/N2N=C(c3ccc(Cl)cc3)CC2c2ccc(OC)cc2)SC1=S (stereo not drawn)             growth    93
 6          Clc1ccccc1CNc1c2ccccc2nc2ccccc12             growth  38.9
 7                   CCCC(CCC)(C(N)=O)C(=O)O             growth  98.5
 8  CS(=O)(=O)c1ccc(C(=O)N2N=C(c3ccccc3)CC2c2ccc3c(c2)OCO3)cc1 (stereo not drawn)             growth  88.7
 9  FC(F)(F)c1cc(-c2nnc3n2N=C(Cl)CS3)cc(C(F)(F)F)c1             growth  99.8
10  COc1ccc(NC(=O)c2sc3c(=O)[nH]c(C(F)(F)F)nc3c2C)cc1             growth  97.7
11     CCOCCNc1ccc(S(=O)(=O)c2ccc(N)cc2)cc1N             growth  94.6
12  COc1cc(C2CC(c3ccc(C)cc3)=NN2C=O)ccc1Oc1nc2c(c(=O)n(C)c(=O)n2C)n1C (stereo not drawn)             growth    84

###

- Test system: DU-145 prostate
- Measurement protocol: NCI-60 one-dose screen, 48 h
- Run parameters: 10 µM unless noted
The panel holds about 83,000 compounds, 20% with a hit somewhere; the sample as a whole holds those more often. Activity calls are given as the source filed them. How the source made its calls: active means growth percent below 10; inactive means the rest.
Outcomes: class 1 (active), class 0 (inactive)

>>> df
                                    compound  group_label
 0  COc1cc(-c2nc(-c3ccc(-c4nc5ccc(F)cc5[nH]4)cc3)no2)cc(OC)c1OC      class 0
 1  COc1cc(NCCC2CCCCN2)c2ncccc2c1OC (stereo not given)      class 0
 2  CN1C2CCC1/C(=C\c1ccc(Cl)cc1)C(=O)/C2=C/c1ccc(Cl)cc1      class 0
 3  CS(=O)(=O)c1ccc(C(=O)Nc2ccc(Cl)c(-c3ccccn3)c2)c(Cl)c1      class 0
 4  COc1ccc(-c2cc(-c3cn(-c4cccc(Cl)c4)nc3-c3ccc(OC)cc3)[nH]c(=S)n2)cc1      class 0
 5  CCCCn1cnc2c(SCc3ccc([N+](=O)[O-])cc3)nc(N)nc21      class 0
 6    ClC1(Cl)C2CCCCCCC21 (stereo not given)      class 0
 7                    NNc1ccc(S(N)(=O)=O)cc1      class 0
 8  CC1CCN(CCCCCOc2ccc3oc4ccc(Cl)cc4c(=O)c3c2)CC1      class 0
 9  Cc1ccc(C(=O)CC(=O)C(F)(F)C(F)(F)C(F)(F)F)s1      class 0
10     CCOCCNc1ccc(S(=O)(=O)c2ccc(N)cc2)cc1N      class 0
11      COc1ccc(-c2cnnn2-c2nonc2-n2cccc2)cc1      class 1
12  O=c1oc2ccccc2cc1-c1cc(-c2ccc(-c3cc(-c4cc5ccccc5oc4=O)nc(-c4cc5ccccc5oc4=O)c3)cc2)cc(-c2cc3ccccc3oc2=O)n1      class 0
13  CC(C)(C)c1nn(-c2ccccc2)c2c1C(=O)CSC(c1ccc3c(c1)OCO3)N2 (stereo not given)      class 0
14                        CC(C)c1cccc(C#N)c1      class 0
15                         CCSc1cnnc2ccccc12      class 0
16  O=C(c1ccccc1)C1OC1C(=O)c1ccccc1 (stereo not given)      class 1
17  CC1CCCN(CCCCOc2ccc(-c3ccc(C#N)cc3)cc2)C1 (stereo not given)      class 0
18  N/C(=N\OC(=O)c1ccccc1)C(C(=O)NOC(=O)c1ccccc1)C1CCCCC1 (stereo not given)      class 0
19             CCOC(=O)N1C2CCC(C2)N1C(=O)OCC      class 0
20                       COc1cc(OC)c(Cl)cc1N      class 0
21  NS(=O)(=O)c1ccc(CCn2c(SCC(=O)N/N=C/c3ccccc3O)nc3ccccc3c2=O)cc1      class 0
22                 Nc1cc(C(=O)O)cc(C(=O)O)c1      class 0
23  O=C1/C(=C/c2cc(F)cc(F)c2)Cc2cc(F)cc(F)c21      class 0
24  CN(C)c1nc(-c2cccs2)n2nc(-c3ccc(Cl)cc3)cc2n1      class 0
25  COc1cccc(-c2cc(-c3cccs3)c(C#N)c(=O)[nH]2)c1      class 0
26  Cc1ccc([C@H]2c3[nH]c4ccccc4c3C[C@H]3C(=O)N(CCCCCCC(=O)NO)CC(=O)N23)cc1      class 0
27  COc1cc2c(c(OC)c1O)C(=O)C(OC)C(c1ccc(O)c(O)c1)O2 (stereo not given)      class 1
28       Oc1ccccc1-c1nnc(COc2ccc(Cl)cc2Cl)o1      class 0
29  COc1ccc2nc3cc(Cl)ccc3c(NC(=O)CSc3ccc(Cl)cc3)c2c1      class 1
30                        CCN(CCC#N)c1ccccc1      class 0
31  O=C1CCCN1C(O)CCN(Cc1ccccc1)Cc1ccc(Cl)cc1 (stereo not given)      class 0
32  O=[N+]([O-])c1ccc(Sc2nc(Cl)nc(NC3CCCC3)n2)cc1      class 1
33        Cc1c(C(=O)CCl)c(=O)n(-c2ccccc2)n1C      class 0
34                  COc1cccc(NC(=O)OC(C)C)c1      class 0
35    Nc1c(C(=O)C[C@@H](N)CO)ccc2c1C(=O)CCO2      class 0
36     CCOC(=O)Nc1ccc2nc(Sc3ccc(Cl)cc3)sc2c1      class 0
37  CN(C)c1ccc(C2(Cl)c3ccccc3N(C)c3ccccc32)cc1      class 0
38  COc1ccc(/C=C/c2nc3ccccc3c(=O)n2-c2ccc(C#Cc3ccc(C(C)(C)C)cc3)cc2C)c(OC)c1      class 0
39  O=c1c2cc(Cl)ccc2oc2ccc(OCCCCCN3CCCCCC3)cc12      class 0
